Subject of test: T1, recombinant human ErbB3 monomeric protein (cleaved rhErbB3) (human, UniProt P21860 20-643, limits assumed)
T1 construct: Monomer made by protease cleavage of the Fc fusion; also called Monomeric ErbB3
Experiment description: SPR Biacore 37 C; supernatant antibody captured on anti-human Fc, cleaved rhErbB3 injected
Measurement type: koff (s⁻¹)
Please give a number only; it is taken to be in s⁻¹.

Q: Note down koff recorded for Sh24C05-19 (antibody, human IgG1, kappa, V domains shown, Humanized, human IgG1/kappa) VH: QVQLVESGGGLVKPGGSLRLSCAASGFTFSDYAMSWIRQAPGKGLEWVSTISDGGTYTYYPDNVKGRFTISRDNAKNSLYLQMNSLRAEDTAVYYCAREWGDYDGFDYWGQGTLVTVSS VL: DIQMTQSPSSLSASVGDRVTITCRASQEISGYLSWLQQKPGGAIKRLIYAASTLDSGVPSRFSGSGSGSDYTLTISSLQPEDFATYYCLQYDSYPYTFGQGTKLEIKR
A: 0.000255

Q: Specify measured koff for Sh24C05-27 (antibody, human IgG1, kappa, V domains shown, Humanized, human IgG1/kappa) VH: EVQLVESGGGLVKPGGSLRLSCAASGFTFSDYAMSWVRQAPGKGLEWVSTISDGGTYTYYPDNVKGRFTISRDNAKNSLYLQMNSLRAEDTAVYYCAREWGDYDGFDYWGQGTLVTVSS VL: DIQMTQSPSSLSASVGDRVTITCRASQEISGYLSWYQQKPGKAPKRLIYAASTLDSGVPSRFSGSGSGTEFTLTISSLQPEDFATYYCLQYDSYPYTFGQGTKLEIKR .
A: 0.000798

Q: Give the value of koff reported for the following: Sh24C05-35 (antibody, human IgG1, kappa, V domains shown, Humanized, human IgG1/kappa) VH: QVQLVESGGGVVQPGRSLRLSCAASGFTFSDYAMSWVRQAPGKGLEWVATISDGGTYTYYPDNVKGRFTISRDNSKNTLYLQMSSLRAEDTAVYYCAREWGDYDGFDYWGQGTLVTVSS VL: DIQMTQSPSSLSASVGDRVTITCRASQEISGYLSWYQQKPGKAPKLLIYAASTLDSGVPSRFSGSGSGTDFTFTISSLQPEDIATYYCLQYDSYPYTFGQGTKLEIKR
A: 0.00553
